This collection of values is drawn from patent US11541037B2.

Test system: HIV-1
Details: read-out: concentration giving 50% inhibition of HIV-1 (viral replication); EASY-HIT, LC5-RIC cells, purchased pure compounds

MOLECULAR_STRING	ASSAYED_TARGET	IC50
Nc1ncc(/C=C/CNC(=O)c2cc(Br)c(Br)[nH]2)[nH]1	HIV-1	50 µM
